target: 5-HT1AR (Homo sapiens, UniProt P08908); experiment: PathHunter β-arrestin 2 inhibition assay, stimulated with serotonin
Sequence (P08908 whole entry): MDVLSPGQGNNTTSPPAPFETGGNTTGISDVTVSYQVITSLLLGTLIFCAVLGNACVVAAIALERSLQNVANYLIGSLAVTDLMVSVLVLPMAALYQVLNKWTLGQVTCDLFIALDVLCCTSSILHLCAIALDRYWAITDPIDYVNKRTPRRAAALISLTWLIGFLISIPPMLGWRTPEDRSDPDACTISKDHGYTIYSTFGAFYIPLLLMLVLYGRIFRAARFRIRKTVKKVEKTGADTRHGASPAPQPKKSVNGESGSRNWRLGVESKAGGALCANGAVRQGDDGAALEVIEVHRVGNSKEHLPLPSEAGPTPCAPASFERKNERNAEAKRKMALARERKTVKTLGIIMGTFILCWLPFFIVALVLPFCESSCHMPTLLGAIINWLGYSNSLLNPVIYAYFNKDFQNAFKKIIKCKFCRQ
pIC50: −log10 of the molar value.
test readout: pIC50

compound	numeric readout
COc1ccccc1OCCNCCCOc1ccc2c(c1)NC(=O)CO2 [ST171]	8.41

###

biological target: UniProt P08908; test: Complementation-based β-arrestin 2 recruitment PathHunter assay
pEC50: −log10 of the molar value.
test readout: pEC50

molecule	test readout	numeric readout
COc1ccccc1OCCNCCCOc1ccc2c(c1)NC(=O)CO2 [ST171]	pEC50	8.26

###

target: 5-HT1AR + Gαi2 (Homo sapiens); construct: host or cells: HEK293AΔGi/o; assay: GloSensor cAMP in HEK293AΔGi/o co-transfected with Gαi2; format: cell-based; conditions: HEK293AΔGi/o + Gαi2; read-out: EC50 [nM ± SEM], inhibition of cAMP accumulation
Sequence (P04899 2-355 partner limits assumed, one chain of several): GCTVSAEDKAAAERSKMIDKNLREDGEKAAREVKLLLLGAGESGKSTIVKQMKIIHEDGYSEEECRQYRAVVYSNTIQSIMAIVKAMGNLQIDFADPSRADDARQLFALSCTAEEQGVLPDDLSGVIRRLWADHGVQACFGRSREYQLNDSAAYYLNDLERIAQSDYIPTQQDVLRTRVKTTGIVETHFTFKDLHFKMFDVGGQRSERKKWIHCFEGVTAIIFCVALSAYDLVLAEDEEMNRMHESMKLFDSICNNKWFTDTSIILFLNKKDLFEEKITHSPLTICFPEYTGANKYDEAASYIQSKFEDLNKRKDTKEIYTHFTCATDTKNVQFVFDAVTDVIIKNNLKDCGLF
test readout: EC50 (nM)

smiles record	numeric readout
COc1ccccc1OCCNCCCOc1ccc2c(c1)NC(=O)CO2	4.4
